- Tested on: P. aeruginosa 799/61
- ASSAY_OVERVIEW: Antibacterial activity in vitro (agar dilution)
- Type: cell-based
- ASSAY_SETUP: Pseudomonas aeruginosa, agar dilution (MuellerHinton agar), inoculum 10^4 CFU/spot, read-out: minimum inhibitory concentration (MIC)

COMPOUND | UNIT_OF_MEASURE | MIC
C#CCNC(=O)[C@@H]1CSCc2c(O)cc(OC)c(C)c2C(=O)OCCCCC(=S)N1 | µg/mL | 2
COC(=O)[C@@H]1CSCc2c(O)cc(OC)c(C)c2C(=O)OC[C@H](O)CCC(=S)N1 | µg/mL | 4
CCCNC(=O)[C@@H]1CSCc2c(O)cc(OC)c(C)c2C(=O)OCCCCC(=S)N1 | µg/mL | 32
COc1cc(O)c2c(c1C)C(=O)OCCCCC(=O)N[C@H](c1nc(C)no1)CSC2 | µg/mL | 4

---

- Tested on: E. coli B
Recorded measurements of MIC, one per entry
QUANTITY_NAME: MIC (µg/mL)

MOLECULE | RESULT_QUALIFIER | MEAS_VALUE
COC(=O)[C@@H]1CSCc2c(O)cc(OC)c(C)c2C(=O)OCCCCC(=S)N1 [Example 23] | = | 16
COc1cc(O)c2c(c1C)C(=O)OCCCCC(=S)N[C@H](c1nc(CNC(C)=O)no1)CSC2 [Example 142] | = | 64
C#CCNC(=O)[C@@H]1CSCc2c(O)cc(OC)c(C)c2C(=O)OCCCCC(=S)N1 [Example 27] | = | 64
COC(=O)c1c(Br)c(OC)cc(O)c1CSC[C@H](Nc1nc(-c2ccc(C(=O)O)cc2)cs1)c1nc(C)no1 [Example 171] | > | 64

---

- System: S. aureus 25923

COMPOUND | TARGET_DESC | MIC [µg/mL]
CCCNC(=O)[C@@H]1CSCc2c(O)cc(OC)c(C)c2C(=O)OCCCCC(=S)N1 | S. aureus 25923 | 2
COc1cc(O)c2c(c1C)C(=O)OCCCCC(=S)N[C@H](c1nc(CNC(C)=O)no1)CSC2 | S. aureus 25923 | 2
COC(=O)c1c(Br)c(OC)cc(O)c1CSC[C@H](NC(C)=S)c1nc(C)no1 | S. aureus 25923 | 2

---

Parameter 'readout' = MIC; parameter 'system' = S. aureus Smith.
QUANTITY_NAME: MIC (µg/mL)

MOLECULE | TARGET_DESC | MEAS_VALUE
COC(=O)c1c(Br)c(OC)cc(O)c1CSC[C@H](Nc1nc(-c2ccc(C(=O)O)cc2)cs1)c1nc(C)no1 [Example 171] | S. aureus Smith | 4
COC(=O)c1c(Br)c(OC)cc(O)c1CSC[C@H](NC(C)=S)c1nc(C)no1 [Example 71] | S. aureus Smith | 1
CCCNC(=O)[C@@H]1CSCc2c(O)cc(OC)c(C)c2C(=O)OCCCCC(=S)N1 [Example 26] | S. aureus Smith | 0.5

---

- TARGET_DESC: DNA gyrase (Escherichia coli, UniProt P0AES4+P0AES6)
- Construct: supercoiling of relaxed pUC18
- ASSAY_OVERVIEW: Inhibition of DNA gyrase activity (DNA gyrase supercoiling assay, relaxed pUC18 plasmid as substrate)
- Assay type: biochemical, E. coli H560
Recorded maximum non-effective concentration of the test compound (MNC), one value per entry.
QUANTITY_NAME: maximum non-effective concentration of the test compound (MNC) (µg/mL)

COMPOUND | UNIT_OF_MEASURE | MEAS_VALUE
COc1cc(O)c2c(c1C)C(=O)OCCCCC(=S)N[C@H](C(N)=O)CSC2 [Example 69] | µg/mL | 0.04
COC(=O)[C@@H]1CSCc2c(O)cc(OC)c(C)c2C(=O)OCCCCC(=S)N1 [Example 23] | µg/mL | 0.01
COC(=O)c1c(Br)c(OC)cc(O)c1CSC[C@H](NC(C)=S)c1nc(C)no1 [Example 71] | µg/mL | 0.5
COc1cc(O)c2c(c1C)C(=O)OCCCCC(=O)N[C@H](c1nc(C)no1)CSC2 [Example 33] | µg/mL | 0.01
COc1cc(O)c(CSC[C@H](NC(C)=O)c2nc(C)no2)c(C#N)c1C [Example 97] | µg/mL | 0.4
COC(=O)c1c(Cl)c(OC)cc(O)c1CSC[C@H](NC(C)=S)c1nc(C)no1 [Example 92] | µg/mL | 0.04
CCCNC(=O)[C@@H]1CSCc2c(O)cc(OC)c(C)c2C(=O)OCCCCC(=S)N1 [Example 26] | µg/mL | 0.04
COC(=O)[C@@H]1CSCc2c(O)cc(OC)c(C)c2C(=O)O[C@H](COC(C)=O)CCC(=S)N1 [Example 11] | µg/mL | 0.02
COC(=O)[C@@H]1CSCc2c(O)cc(OC)c(C)c2C(=O)OC[C@H](O)CCC(=S)N1 [Example 32] | µg/mL | 0.01
C#CCNC(=O)[C@@H]1CSCc2c(O)cc(OC)c(C)c2C(=O)OCCCCC(=S)N1 [Example 27] | µg/mL | 0.01
COc1cc(O)c2c(c1C)C(=O)O[C@H](CO)CCC(=S)N[C@H](C(=O)NC1CCCC1)CSC2 [Example 14] | µg/mL | 0.2

---

- Tested on: E. coli B
Recorded MIC, one value per entry.
QUANTITY_NAME: MIC

COMPOUND | QUANTITY_NAME | MEAS_VALUE
COC(=O)c1c(C)c(OC)cc(O)c1CSC[C@H](Nc1nc(-c2ccccc2)ns1)c1nc(C)no1 | MIC | > 64 µg/mL
COC(=O)[C@@H]1CSCc2c(O)cc(OC)c(C)c2C(=O)OC[C@H](O)CCC(=S)N1 | MIC | > 64 µg/mL
COC(=O)[C@@H]1CSCc2c(O)cc(OC)c(C)c2C(=O)O[C@H](COC(C)=O)CCC(=S)N1 | MIC | > 64 µg/mL
COC(=O)c1c(Br)c(OC)cc(O)c1CSC[C@H](NC(C)=S)c1nc(C)no1 | MIC | > 64 µg/mL
COC(=O)c1c(Cl)c(OC)cc(O)c1CSC[C@H](NC(C)=S)c1nc(C)no1 | MIC | > 64 µg/mL
CCCNC(=O)[C@@H]1CSCc2c(O)cc(OC)c(C)c2C(=O)OCCCCC(=S)N1 | MIC | > 64 µg/mL
COc1cc(O)c2c(c1C)C(=O)OCCCCC(=S)N[C@H](C(N)=O)CSC2 | MIC | > 64 µg/mL

The reported measurements were obtained from patent US5594135A.
